- tgt: MBP-FoxP3dN (Mus musculus, UniProt Q99JB6 188-423)
- Sequence: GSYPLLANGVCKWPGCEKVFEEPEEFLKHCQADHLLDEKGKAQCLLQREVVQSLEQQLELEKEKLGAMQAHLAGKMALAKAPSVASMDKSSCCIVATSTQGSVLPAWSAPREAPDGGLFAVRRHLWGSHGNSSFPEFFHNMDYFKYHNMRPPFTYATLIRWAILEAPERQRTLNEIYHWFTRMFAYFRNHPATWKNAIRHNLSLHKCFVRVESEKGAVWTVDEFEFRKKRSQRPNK
- experimentDescription: PD-seq (MBP pull-down with sequencing); 20 mM Tris-HCl pH 7.5, 100 mM NaCl, 1.5 mM MgCl2, 0.4 uM protein, 0.1 uM dsDNA library, 30 min, room temperature, amylose pull-down; high values mean tight binding
- setupConditions: protein: recombinant; tags: His6-MBP; chain copies: 2; dsDNA, one strand shown
In all, about 16,000 sequences were measured (“rpm ratio (pull-down/input)”: median about 0.5, highest 2% from about 5.5 on). The sample holds the highest values, similar sequences and a random draw of the others, so the mix is not that of the screen.
experimentalReadout: binding signal

Use the examples below as a reference point.
sequenceData: GATGATTGTTCTCCCAGCTGATGAATTTGTATTCTCGAGTAAACAAATTTTCCTAATCTTTCTGTTCAAGCGCCATCTAC
experimentalReadout: binding signal
result: 5.9 RPM ratio (pull-down/input)
//
sequenceData: GATGATTGTTCTCCCAGCTGATGAATTGTATTCCTCGAGTAAACAAATTTTCCTAATCTTTCTGTTCAAGCGCCATCTAC
experimentalReadout: binding signal
result: 1.97 RPM ratio (pull-down/input)
//
sequenceData: GATGATTGTTCTCCCAGCTGATGAATTCATGAAATCGAGTAAACAAATTTTCCTAATCTTTCTGTTCAAGCGCCATCTAC
experimentalReadout: binding signal
result: 0.289 RPM ratio (pull-down/input)

Switching to the query record.
binding signal recorded for this sequence, GATGATTGTTCTCCCAGCTGATGAATTAGTAGTATCGAGTAAACAAATTTTCCTAATCTTTCTGTTCAAGCGCCATCTAC , is 2.45 RPM ratio (pull-down/input)
